# Tested on: Caco-2
# EXPERIMENTAL_DETAILS: Antiproliferative activity against human Caco2 cells assessed as reduction in cell growth after 72 hrs by MTT assay
# Type: functional, cell-based
# MEASUREMENT_CONDITIONS: Caco-2, 72 h
PROPERTY_MEASURED: IC50 (µM)
Express the result in µM but write the number alone.

The measured IC50 associated with CCCCCCCCCCC[C@H](O)CCCCCC(=O)O reads 50

The measured IC50 associated with CCCCCCCCCCC[C@@H](O)CCCCCC(=O)O reads 37

The measured IC50 associated with CCCCCCCCC[C@H](O)CCCCCC(=O)O reads 50

The measured IC50 associated with CCCCCCCCC[C@@H](O)CCCCCC(=O)O reads 42
